Reference source for all entries: PubChem BioAssay AID1963436

Attribute: pIC50
# Test system: OVCAR-5 complex spheroid (HUVEC/MSC), viability % T/C
# METHOD_NOTES: Anticancer human tumor OVCAR-5 cell line growth inhibition [Asc];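 also: spheroids exposed to agents for 7 days before readout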
# TEST_PARAMETERS: curve of first compound; second compound 0.1 µM
Please treat pIC50 as minus the base-10 logarithm of the molar concentration.

COMPOUND	TARGET_OF_ASSAY	pIC50
O=C(c1ccc(F)c(F)c1Nc1ccc(I)cc1F)N1CC(O)([C@@H]2CCCCN2)C1 + CNC(C)C(=O)NC1CN(S(=O)(=O)c2cccc(S(=O)(=O)N3CCC4CCC(C(=O)NC(c5ccccc5)c5ccccc5)N4C(=O)C(NC(=O)C(C)NC)C3)c2)CCC2CCC(C(=O)NC(c3ccccc3)c3ccccc3)N2C1=O	OVCAR-5 complex spheroid (HUVEC/MSC), viability % T/C	7.12

Recorded pIC50 of COc1c(OCCCN2CCOCC2)ccc2c3n(c(=NC(=O)c4cnc(N)nc4)nc12)CCN3 + Cc1c(S(C)(=O)=O)c(-c2cc(F)cc(N3CCN(c4ccc(NS(=O)(=O)c5ccc(NC(CCN6CCC(C(=O)OCCCP(=O)(O)O)CC6)CSc6ccccc6)c(S(=O)(=O)C(F)(F)F)c5)cc4)CC3)c2)c(-c2ccc(Cl)cc2)n1C(C)C , please.
7.55

====

# System: OVCAR-5 complex spheroid (HUVEC/MSC), viability % T/C
# METHOD_NOTES: Anticancer human tumor OVCAR-5 cell line growth inhibition [Asc];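 also: spheroids exposed to agents for 7 days before readout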;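 as to viability, T/C: 100% = DMSO vehicle-treated wells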
# TEST_PARAMETERS: second compound 0.949 µM; first compound 0.00316 µM; stronger effect = lower value
ENDPOINT_LABEL: viability, T/C (%)
I only need the number, in %, no unit after it.

MOLECULE	viability, T/C (%)
COc1c(OCCCN2CCOCC2)ccc2c3n(c(=NC(=O)c4cnc(N)nc4)nc12)CCN3 + CCN1C(C(=O)NC23CCC(C(=O)O)(CC2)CC3)C(c2cccc(Cl)c2F)C2(C(=O)Nc3cc(Cl)ccc32)C12CCCCC2	79.4
NC1CCC(NC2CC2c2ccccc2)CC1 (stereo unspecified) + CCN1C(C(=O)NC23CCC(C(=O)O)(CC2)CC3)C(c2cccc(Cl)c2F)C2(C(=O)Nc3cc(Cl)ccc32)C12CCCCC2	97.6
CCN1CCN(Cc2ccc(Nc3ncc(F)c(-c4cc(F)c5nc(C)n(C(C)C)c5c4)n3)nc2)CC1 + CCN1C(C(=O)NC23CCC(C(=O)O)(CC2)CC3)C(c2cccc(Cl)c2F)C2(C(=O)Nc3cc(Cl)ccc32)C12CCCCC2	85.9
Cn1ncnc1[C@H]1c2n[nH]c(=O)c3cc(F)cc(c23)N[C@@H]1c1ccc(F)cc1 + CCN1C(C(=O)NC23CCC(C(=O)O)(CC2)CC3)C(c2cccc(Cl)c2F)C2(C(=O)Nc3cc(Cl)ccc32)C12CCCCC2	106
O=C(c1ccc(F)c(F)c1Nc1ccc(I)cc1F)N1CC(O)([C@@H]2CCCCN2)C1 + CCN1C(C(=O)NC23CCC(C(=O)O)(CC2)CC3)C(c2cccc(Cl)c2F)C2(C(=O)Nc3cc(Cl)ccc32)C12CCCCC2	87.3

Moving on to the next molecule.
Recorded viability, T/C of CNC(C)C(=O)NC1CN(S(=O)(=O)c2cccc(S(=O)(=O)N3CCC4CCC(C(=O)NC(c5ccccc5)c5ccccc5)N4C(=O)C(NC(=O)C(C)NC)C3)c2)CCC2CCC(C(=O)NC(c3ccccc3)c3ccccc3)N2C1=O (stereo unspecified) + CCN1C(C(=O)NC23CCC(C(=O)O)(CC2)CC3)C(c2cccc(Cl)c2F)C2(C(=O)Nc3cc(Cl)ccc32)C12CCCCC2 , please.
109
